Tested on: LNCaP tumor-transplanted mouse
protocol notes: Internal radioactivity distribution using LNCaP tumor-transplanted mouse
Type: in vivo
condition set: 1 h after administration
Reported Spleen by item:
The reply should be a number in % ID/g, with the unit left off.

O=C(O)CC[C@H](NC(=O)N[C@@H](CCCCNC(=O)[C@H](Cc1ccc2ccccc2c1)NC(=O)[C@H]1CC[C@H](CNC(=O)CCC(C(=O)O)N2CCN(CC(=O)O)CCN(C(CCC(=O)N[C@@H](CCCCNC(=O)CCCc3ccc(I)cc3)C(=O)O)C(=O)O)CCN(CC(=O)O)CC2)CC1)C(=O)O)C(=O)O (stereo partly drawn) [[^111In]In-PSMA-NAT-DA1, metal not drawn]: 31.2
O=C([O-])CN1CCN(C(CCC(=O)NCCCC[C@H](NC(=O)N[C@@H](CCC(=O)O)C(=O)O)C(=O)O)C(=O)[O-])CCN(CC(=O)[O-])CCN(C(CCC(=O)N[C@@H](CCCCNC(=O)CCCc2ccc(I)cc2)C(=O)O)C(=O)[O-])CC1.[111In+3] (stereo partly drawn) [[^111In]In-PSMA-DA1]: 8.56
O=C([O-])CN1CCN(C(CCC(=O)NCCC(=O)N2Cc3ccccc3-c3c(nnn3CCOCCOCCOCCOCCC(=O)NCCCC[C@H](NC(=O)N[C@@H](CCC(=O)O)C(=O)O)C(=O)O)-c3ccccc32)C(=O)[O-])CCN(CC(=O)[O-])CCN(C(CCC(=O)N[C@@H](CCCCNC(=O)CCCc2ccc(I)cc2)C(=O)O)C(=O)[O-])CC1.[111In+3] (stereo partly drawn) [[^111In]In-PtDA]: 15.3
O=C([O-])CN(Cc1cccc(C(=O)[O-])n1)C[C@H](Cc1ccc(NC(=O)CCCCCNC(=O)CCC(=O)NCCCC[C@H](NC(=O)N[C@@H](CCC(=O)O)C(=O)O)C(=O)O)cc1)N(CC(=O)[O-])Cc1cccc(C(=O)[O-])n1.[111In+3] [[^111In]In-Octapa-1, reference compound]: 10.9
O=C([O-])CN(CCN(CCc1ccc(NC(=O)[C@H](CCCCNC(=O)CCC(=O)NCCCC[C@H](NC(=O)N[C@@H](CCC(=O)O)C(=O)O)C(=O)O)NC(=O)CCCc2ccc(I)cc2)cc1)CCN(CC(=O)[O-])Cc1cccc(C(=O)[O-])n1)Cc1cccc(C(=O)[O-])n1.[111In+3] [[^111In]In-Neunpa-2]: 16.9
O=C([O-])CN(Cc1cccc(C(=O)[O-])n1)C[C@H](Cc1ccc(NC(=O)[C@H](CCCCNC(=O)CCC(=O)NCCCC[C@H](NC(=O)N[C@@H](CCC(=O)O)C(=O)O)C(=O)O)NC(=O)COCCOCCOCC(=O)N[C@@H](CCCCNC(=O)CCCc2ccc(I)cc2)C(=O)O)cc1)N(CC(=O)[O-])Cc1cccc(C(=O)[O-])n1.[111In+3] [[^111In]In-Octapa-3]: 8.56
O=C([O-])CN(CCN(CCc1ccc(NC(=O)CCCCCNC(=O)CCC(=O)NCCCC[C@H](NC(=O)N[C@@H](CCC(=O)O)C(=O)O)C(=O)O)cc1)CCN(CC(=O)[O-])Cc1cccc(C(=O)[O-])n1)Cc1cccc(C(=O)[O-])n1.[111In+3] [[^111In]In-Neunpa-1, reference compound]: 6.83
O=C([O-])CN(Cc1cccc(C(=O)[O-])n1)C[C@H](Cc1ccc(NC(=O)[C@H](CCCCNC(=O)CCC(=O)NCCCC[C@H](NC(=O)N[C@@H](CCC(=O)O)C(=O)O)C(=O)O)NC(=O)CCCc2ccc(I)cc2)cc1)N(CC(=O)[O-])Cc1cccc(C(=O)[O-])n1.[111In+3] [[^111In]In-Octapa-2]: 18.5

Okay, now this molecule:
[in] Would you mind telling me what Spleen value was observed for O=C([O-])CN1CCN(C(CCC(=O)NCCCC[C@H](NC(=O)N[C@@H](CCC(=O)O)C(=O)O)C(=O)O)C(=O)[O-])CCN(CC(=O)[O-])CCN(C(CCC(=O)Nc2ccccc2)C(=O)[O-])CC1.[111In+3] (stereo partly drawn) [[^111In]In-PSMA-DB, reference compound] ?
[out] 3.05
